// values below are reported Ratio TD50/ED50
Tested on: Mus musculus
Test: Protective index, ratio of TD50 for ip dosed Swiss albino mouse assessed as inability of animal to maintain equilibrium on rod after 0.5 hrs by rotarod test to ED50 for Swiss albino mouse assessed as reduction of maximal electroshock-induced seizure
Assay type: functional

# molecule, outcome.measure, assay.result
rows = [
    ("CCOC(=O)C1C(c2cc3ccccc3nc2Cl)NC(c2cc3ccccc3nc2Cl)C(C(=O)OCC)S1(=O)=O (stereo not drawn)", "Ratio TD50/ED50", 10.3),
]

**Q:** Notebook: pull reported Ratio TD50/ED50 for Mus musculus, entry CCOC(=O)C1C(c2ccc(Cl)cc2)NC(c2ccc(Cl)cc2)C(C(=O)OCC)S1(=O)=O (stereo not drawn)
**A:** 28.3

**Q:** Notebook: pull reported Ratio TD50/ED50 for Mus musculus, entry CCOC(=O)C1C(c2cc3ccccc3[nH]2)NC(c2cc3ccccc3[nH]2)C(C(=O)OCC)S1(=O)=O (stereo not drawn)
**A:** 9

Reference source: ChEMBL document CHEMBL3739267
